- experiment-notes: In vitro photo-release and hydrolytic release of dicamba in an aqueous medium (Example 36)
- Assay type: physicochemical
- settings: 0.01 mM (0.005 mM for diesters), amber (dark) bottle, Day 1
Kindly state Conversion to Dicamba, Dark, Day 1 for each of the entries shown.
One number for each entry, in %.

[
  {
    "compound": "COc1c(Cl)ccc(Cl)c1C(=O)Oc1ccc(=O)n(CCC#N)n1 [Ester 34a]",
    "value-reported": 9
  },
  {
    "compound": "COc1c(Cl)ccc(Cl)c1C(=O)Oc1nc(C(C)(C)C)cc(C(C)(C)C)c1C#N [Ester 36a]",
    "value-reported": 59
  },
  {
    "compound": "COc1c(Cl)ccc(Cl)c1C(=O)Oc1ccccn1 [Ester 14, 2-Hydroxypyridine Ester of Dicamba]",
    "value-reported": 68
  },
  {
    "compound": "COc1ccc(COC(=O)c2c(Cl)ccc(Cl)c2OC)cc1 [Ester 29a, 4-methoxybenzyl ester of dicamba]",
    "value-reported": 81
  }
]

Report Conversion to Dicamba, Dark, Day 1 for each item below.
1. COc1c(Cl)ccc(Cl)c1C(=O)Oc1ccc(OC(=O)c2c(Cl)ccc(Cl)c2OC)nn1 [Ester 17, Maleic Hydrazide Diester of Dicamba]
2. COc1c(Cl)ccc(Cl)c1C(=O)Oc1ccc(=O)n(CCC=O)n1 [Ester 33a]
3. C=C(C(=O)OCC)C(OC(=O)c1c(Cl)ccc(Cl)c1OC)c1ccccc1[N+](=O)[O-] (centres unmarked) [Ester 31a]
4. CCOC(=O)CCn1nc(OC(=O)c2c(Cl)ccc(Cl)c2OC)ccc1=O [Ester 35a]

16
15
37
66
